# target entity: OGA (Homo sapiens)
# Construct: endogenous in cells; host or cells: HEK293 cells inducible for P301L mutant human Tau (2N4R)
# assay protocol: OGA cellular assay (ICC detection of O-GlcNAcylated proteins in HEK293 cells inducible for P301L mutant human Tau)
# Format: cell-based
# condition label: HEK293, HEK293 cells inducible for P301L mutant human Tau, maximal effect; Thiamet G 200 uM as maximum
test readout: Emax (%)

Guide cases for Emax, answers given:
molecule: COc1cc(NC[C@H]2CCCN(C(C)c3ccc4c(n3)OCCO4)C2)cc(C)n1 (single isomer, unassigned) [Product 26]
observed: 85

molecule: Cc1cc([C@H]2CCCN(C(C)c3cnc4c(c3)OCCN4)C2)cc(C)n1 (single isomer, unassigned) [Product 135]
observed: 68

molecule: COC1CCN(C(C)c2ccc3c(n2)OCCO3)CC1Cc1cc(C)nc(C)c1 (stereo not shown) [Product 172]
observed: 78

molecule: COc1cc(OC[C@H]2CCCN([C@H](C)c3ccc4c(n3)OCCO4)C2)cc(C)n1 (racemic) [Product 110]
observed: 68

a: Cc1cc(OC[C@@H]2CCCN([C@@H](C)c3ccc4c(n3)OCCO4)C2)cc(C)n1 (relative stereo) [Product 108]
b: Cc1cc(C[C@H]2CCCN(Cc3ccc4c(n3)OCCO4)C2)cc(C)n1 [Product 43]
c: Cc1cc(NC[C@H]2CCCN(C(C)c3nc4c(cc3F)OCCO4)C2)cc(C)n1 (stereo partly shown) [Product 181]
query: Output the entries ranked by Emax from maximum down to minimum. Would you mind listing the labels in the order asked for?
result: c, b, a

====

# target entity: recombinant human Meningioma Expressed Antigen 5 (MGEA5), also referred to as O-GlcNAcase (OGA) (Homo sapiens)
# Construct: Full length OGA enzyme was purchased at OnGene (cat #TP322411); purchased OnGene (so in the source)
# assay protocol: OGA biochemical assay (inhibition of FM-GlcNAc hydrolysis, fluorescence)
# condition label: read-out: Enzymatic hOGA, pIC50 (converted)
test readout: IC50 (nM)

Guide cases for IC50, answers given:
compound: Cc1cc(NCC2CCCN(C(C)c3ccc4c(n3)OCCO4)C2)cc(C(F)(F)F)n1 (single isomer, unassigned) [Product 33]
observed: 2.51
//
compound: Cc1cc(C[C@H]2CCCN([C@@H](C)c3ccc4c(n3)OCCO4)C2)cc(C)n1 (single isomer, unassigned)
observed: 3.16
//
compound: Cc1cc(C2CCCN([C@H](C)c3ccc4c(n3)OCCO4)C2)nc(C)n1 (mixture of isomers)
observed: 100
//
compound: Cc1cc(C[C@H]2CCCN(Cc3ccc4c(n3)OCC(=O)N4)C2)cc(C)n1
observed: 3160

A: Cc1cc(C[C@H]2CCCN(C(C)c3cc4c(cc3F)OCCO4)C2)cc(C(F)(F)F)n1 (mixture of isomers)
B: Cc1cc(C[C@H]2CCCN(C(C)c3ccc4c(c3)OCC(=O)N4)C2)cc(C)n1 (mixture of isomers)
query: // max by IC50 over [ A , B ] Identify your selection by its label.
result: B
(B: 126 nM, A: 6.31 nM)

====

# target entity: OGA (Homo sapiens, UniProt O60502)
# Construct: endogenous in cells; host or cells: HEK293 cells inducible for P301L mutant human Tau (2N4R)
# assay protocol: OGA cellular assay (ICC detection of O-GlcNAcylated proteins in HEK293 cells inducible for P301L mutant human Tau)
# Type: cell-based
# condition label: HEK293, HEK293 cells inducible for P301L mutant human Tau, maximal effect; Thiamet G 200 uM as maximum
test readout: Emax (%)

Guide cases for Emax, answers given:
compound: Cc1cc(C[C@H]2CCCN(C(C)c3cnc4c(c3)OCC4)C2)cc(C)n1 (mixture of isomers)
unit tag: %
Emax: 78
--
compound: Cc1cc(CC2(F)CCCN([C@H](C)c3nc4c(cc3F)OCCO4)C2)cc(C)n1 (single isomer, unassigned)
unit tag: %
Emax: 75

I: COc1cc(N[C@H]2CCCN(C(C)c3ccc4c(n3)OCCO4)C2)cc(C)n1 (stereo partly shown)
II: Cc1cc(C[C@H]2CCCN(Cc3ccc4c(c3)OCCN4C)C2)cc(C)n1
query: Between the entries labeled I and II , whose measured Emax is lower? Identify your selection by its label.
result: II

====

# target entity: recombinant human Meningioma Expressed Antigen 5 (MGEA5), also referred to as O-GlcNAcase (OGA) (Homo sapiens, UniProt O60502)
# Construct: Full length OGA enzyme was purchased at OnGene (cat #TP322411); purchased OnGene (so in the source)
# assay protocol: OGA biochemical assay (inhibition of FM-GlcNAc hydrolysis, fluorescence)
# condition label: maximal effect, read-out: Enzymatic Emax (%)
test readout: Emax (%)

compound: Cc1cc([C@H]2CCCN([C@@H](C)c3cc4c(cc3F)OCCO4)C2)cc(C(F)(F)F)n1 (single isomer, unassigned)
Emax [%]: 99

compound: CC(c1ccc2c(n1)OCCO2)N1CCC[C@H](NCc2ccc(F)cc2)C1 (some centres unmarked)
Emax [%]: 98

compound: Cc1cc(C2CCCN(C(C)c3ccc4c(n3)OCCO4)C2)cc(C)n1 (centres unmarked)
Emax [%]: 102

compound: Cc1cc(CC2(F)CCCN([C@H](C)c3nc4c(cc3F)OCCO4)C2)cc(C)n1 (single isomer, unassigned)
Emax [%]: 99

compound: Cc1cc(OC2CCCN(C(C)c3ccc4c(n3)OCCO4)C2)cc(C)n1 (centres unmarked)
Emax [%]: 101

compound: Cc1cc(C2CCCN(C(C)c3nc4c(cc3F)CCO4)C2)cc(C)n1 (centres unmarked)
Emax [%]: 98

compound: Cc1cc(CC2CN(C(C)c3ccc4c(n3)OCCO4)CCC2O)cc(C)n1 (centres unmarked)
Emax [%]: 99

compound: COc1cc(C[C@H]2CCCN(C(C)c3ccc4c(n3)OCCO4)C2)cc(C)n1 (mixture of isomers)
Emax [%]: 101

====

# target entity: OGA (Homo sapiens)
# Construct: endogenous in cells; host or cells: HEK293 cells inducible for P301L mutant human Tau (2N4R)
# assay protocol: OGA cellular assay (ICC detection of O-GlcNAcylated proteins in HEK293 cells inducible for P301L mutant human Tau)
# Format: cell-based
# condition label: HEK293 cells inducible for P301L mutant human Tau, 6 hours incubation; read-out: Cellular hOGA; pEC50 (converted)
test readout: EC50 (nM)

Guide cases for EC50, answers given:
compound: Cc1cc(OC[C@H]2CCCN(C(C)c3nc4c(cc3F)CCO4)C2)cc(C)n1 (mixture of isomers) [Product 178]
observed: 2.51
//
compound: Cc1cc(OC[C@H]2CCCN(C(C)c3nc4c(cc3F)CCO4)C2)cc(C)n1 (single isomer, unassigned) [Product 179]
observed: 251
//
compound: Cc1cc(OC[C@H]2CCCN(C(C)c3nc4c(cc3F)OCCO4)C2)cc(C)n1 (stereo partly shown) [Product 152]
observed: 3.98

P: COc1cc(C[C@H]2CCCN(C(C)c3ccc4c(n3)OCCO4)C2)cc(C)n1 (mixture of isomers) [Product 63]
Q: Cc1cc(OC2CCCN(C(C)c3cnc4c(c3)OCCN4)C2)cc(C)n1 (stereo not shown) [Product 14]
query: // max by EC50 over [ P , Q ] Identify your selection by its label.
result: Q
(Q: 631 nM, P: 31.6 nM)

====

# target entity: recombinant human Meningioma Expressed Antigen 5 (MGEA5), also referred to as O-GlcNAcase (OGA) (Homo sapiens, UniProt O60502)
# Construct: Full length OGA enzyme was purchased at OnGene (cat #TP322411); purchased OnGene (so in the source)
# assay protocol: OGA biochemical assay (inhibition of FM-GlcNAc hydrolysis, fluorescence)
# condition label: read-out: Enzymatic hOGA, pIC50 (converted)
test readout: IC50 (nM)

Guide cases for IC50, answers given:
molecule: Cc1cc(C[C@H]2CCCN(C(C)c3ccc4c(n3)OCC(=O)N4)C2)cc(C)n1 (single isomer, unassigned) [Product 61]
IC50 / nM: 39.8
--
molecule: Cc1cc(OC[C@H]2CCCN(C(C)c3cnc4c(c3)OCCN4)C2)cc(C)n1 (stereo partly shown)
IC50 / nM: 6.31

I: COc1cc(NC[C@H]2CCCN(C(C)c3ccc4c(n3)OCCO4)C2)cc(C)n1 (mixture of isomers) [Product 24]
II: COc1cc(NC[C@@H]2CCCN(C(C)c3ccc4c(n3)OCCO4)C2)cc(C)n1 (mixture of isomers) [Product 27]
query: Between the entries labeled I and II , whose measured IC50 is lower? Identify your selection by its label.
result: I
(I: 7.94 nM, II: 200 nM)

====

# target entity: OGA (Homo sapiens)
# Construct: endogenous in cells; host or cells: HEK293 cells inducible for P301L mutant human Tau (2N4R)
# assay protocol: OGA cellular assay (ICC detection of O-GlcNAcylated proteins in HEK293 cells inducible for P301L mutant human Tau)
# Type: cell-based
# condition label: HEK293 cells inducible for P301L mutant human Tau, 6 hours incubation; read-out: Cellular hOGA; pEC50 (converted)
test readout: EC50 (nM)

compound: Cc1cc(C[C@H]2CCCN(C(C)c3cnc4c(c3)OCCN4)C2)cc(C)n1 (single isomer, unassigned) [Product 52]
target entity: OGA (Homo sapiens)
EC50 (nM): 6.31

1: Cc1cc(C2CCCN(C(C)c3ccc4c(n3)OCCO4)C2)cc(C(F)(F)F)n1 (stereo not shown)
2: Cc1cc(OC[C@H]2CCCN(C(C)c3nc4c(cc3F)OCCO4)C2)cc(C)n1 (single isomer, unassigned) [Product 156]
query: Between the entries labeled 1 and 2 , whose measured EC50 is lower? Identify your selection by its label.
result: 1
(1: 200 nM, 2: 316 nM)

I: Cc1cc(OC[C@H]2CCCN(C(C)c3nc4c(cc3F)OCCO4)C2)cc(C)n1 (single isomer, unassigned) [Product 155]
II: Cc1cc(OC[C@H]2CCCN(C(C)c3ccc4c(n3)OCCO4)C2)nc(C)n1 (single isomer, unassigned) [Product 163]
query: Between the entries labeled I and II , whose measured EC50 is lower? Identify your selection by its label.
result: I
(I: 2.57 nM, II: 45.7 nM)

P: Cc1cc([C@H]2CCCN(C(C)c3nc4c(cc3F)CCO4)C2)cc(C)n1 (single isomer, unassigned)
Q: Cc1cc(C2CCCN(C(C)c3ccc4c(n3)OCCO4)C2)cc(C(F)F)n1 (stereo not shown)
query: // max by EC50 over [ P , Q ] Identify your selection by its label.
result: Q
